Test: Cytotoxicity against human C8166 cells after 4 days by MTT assay
Format: cell-based
metric: CC50 at 96 h

INPUT: Item C[C@@H](CC(=O)NC(=O)c1coc(Cc2ccccc2)cc1=O)C(=O)O [PESTALAMIDE A] has what recorded CC50 at 96 h?
OUTPUT: > 100 µM

Where these numbers come from: ChEMBL document CHEMBL1154133
